- TARGET_OR_SYSTEM: NS5B from the BK strain (genotype 1b) (Hepatitis C virus genotype 1b, UniProt P26663)
- Construct: NS5B from the BK strain (genotype 1b) is expressed in E. coli as a protein in which the 21 C-terminal amino acids are replaced; made in house; host or cells: E. coli
- Sequence (P26663 2420-2989): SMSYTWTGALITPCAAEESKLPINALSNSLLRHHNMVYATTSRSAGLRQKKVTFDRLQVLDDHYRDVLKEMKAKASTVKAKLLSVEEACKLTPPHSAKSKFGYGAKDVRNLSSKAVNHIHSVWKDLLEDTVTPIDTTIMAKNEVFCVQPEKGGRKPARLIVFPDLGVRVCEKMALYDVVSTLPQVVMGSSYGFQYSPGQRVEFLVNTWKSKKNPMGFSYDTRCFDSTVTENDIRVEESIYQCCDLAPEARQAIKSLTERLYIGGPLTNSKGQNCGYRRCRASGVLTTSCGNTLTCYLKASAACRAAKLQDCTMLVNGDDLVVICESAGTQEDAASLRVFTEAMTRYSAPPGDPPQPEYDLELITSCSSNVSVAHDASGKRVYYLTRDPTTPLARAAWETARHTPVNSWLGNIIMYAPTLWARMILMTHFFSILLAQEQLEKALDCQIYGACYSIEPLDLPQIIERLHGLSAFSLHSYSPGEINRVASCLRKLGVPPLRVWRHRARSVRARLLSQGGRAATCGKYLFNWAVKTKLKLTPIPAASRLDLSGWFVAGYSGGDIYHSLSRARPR
- PROTOCOL_SUMMARY: Hepatitis C polymerase inhibition, NS5B BK strain, 33P-GTP filter assay
- Type: biochemical
- CONDITION_SET: Table 1B; NS5B BK strain; read-out: BK IC50
- Text: The ability of the compounds of the present invention to inhibit Hepatitis C Polymerase was established by the following experimental procedure: • NS5B from the BK strain (genotype 1b) is expressed in E. coli as a protein in which the 21 C-terminal amino acids are replaced with a short linker and a hexahistidine tag ([…]). […] The radioactive product is captured on a filter and quantitated after removal of the unincorporated nucleotides. […]
So basically, if IC50 comes in under 4 µM it's rule met, and if it's 4 µM or more it's rule not met.

Illustrative cases are given below, each with its answer.
CCCC1(C(=O)O)OCCc2c1[nH]c1c(C)ccc(C(F)(F)F)c21 (centres unmarked) [Example 333] = rule met
N#Cc1ccc(F)c2[nH]c3c(c12)CCOC3(C(=O)O)C1CCCC1 (centres unmarked) [Example 350] = rule not met
CCCC1(C(=O)O)OCCc2c1[nH]c1ccc(Cl)c(Cl)c21 (centres unmarked) [Example 328] = rule not met
CCCC1(C(=O)O)OCCc2c1[nH]c1c(C)ccc(C#N)c21 (centres unmarked) [Example 334] = rule met
CCCC1(C(=O)O)OCCc2c1[nH]c1c(F)ccc(C(F)(F)F)c21 (centres unmarked) [Example 332] = rule not met
CC[C@H](C)[C@]1(CC(=O)O)OCCc2c1[nH]c1c(C)cc(F)c(C#N)c21 [Example 320] = rule met

query: is_below(IC50, 4 µM) for CCCC1(CC(=O)O)OCCc2c1[nH]c1c(Cl)ccc(C#N)c21 (centres unmarked) [Example 321] ?
result: rule met

query: Does COCC1(CC(=O)O)OCCc2c1[nH]c1c(Cl)ccc(Cl)c21 (centres unmarked) [Example 246] have IC50 strictly under 4 µM?
result: rule not met

query: Please check: IC50 for Cc1ccc(C#N)c2c3c([nH]c12)C(CC(=O)O)(C1CCCC1)OCC3 (centres unmarked) [Example 287] , strictly under 4 µM or not?
result: rule not met

query: Is IC50 strictly under 4 µM for the entry COCC1(CC(=O)O)OCCc2c1[nH]c1c(Cl)ccc(C(F)(F)F)c21 (centres unmarked) [Example 264] ?
result: rule not met

query: # TODO verify IC50 < 4 µM strictly for this compound: O=C(O)CC1(CC2CC2)OCCc2c1[nH]c1c(Cl)ccc(Cl)c21 (centres unmarked) [Example 257]
result: rule met

query: Criterion: IC50 strictly below 4 µM. Is it met by CC[C@H](C)[C@@]1(C(=O)O)OCCc2c1[nH]c1c(F)ccc(C#N)c21 (racemic) [Example 348] ?
result: rule not met

query: In the record for Cc1ccc(C#N)c2c3c([nH]c12)C(C(=O)O)(C1CCC1)OCC3 (centres unmarked) [Example 338] , is IC50 less than 4 µM?
result: rule met
